target-under-test: T1, recombinant human CD47 extracellular domain (ECD), His-tagged, dimer (human, UniProt Q08722 19-141)
T1 construct: Dimeric fraction of the same His-tagged ECD; also called His-tagged CD47-ECD dimer protein
test-description: MSD; CD47-ECD dimer binding to captured SIRP alpha-Fc, mAb 10 µg/ml
endpoint-label: % SIRP alpha Inhibition
Number first, unit second: that is the form wanted.

Using the record for C47B224 (antibody, V domains shown, human IgG2sigma/kappa) VH: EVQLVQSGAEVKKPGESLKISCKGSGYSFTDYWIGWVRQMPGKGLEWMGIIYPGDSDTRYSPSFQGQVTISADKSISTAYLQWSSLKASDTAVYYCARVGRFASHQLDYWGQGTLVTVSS VL: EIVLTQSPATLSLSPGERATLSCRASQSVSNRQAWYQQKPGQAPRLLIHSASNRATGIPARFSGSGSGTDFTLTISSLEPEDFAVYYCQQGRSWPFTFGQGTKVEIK , report its % SIRP alpha Inhibition.
99.7%

Next, consider the following binder.
Using the record for C47B232 (antibody, V domains shown, human IgG2sigma/kappa) VH: EVQLVQSGAEVKKPGESLKISCKGSGYSFTNYWIGWVRQMPGKGLEWMGIIYPGDSDTRYSPSFQGQVTISADKSISTAYLQWSSLKASDTAVYYCARVGRFASHQLDYWGQGTLVTVSS VL: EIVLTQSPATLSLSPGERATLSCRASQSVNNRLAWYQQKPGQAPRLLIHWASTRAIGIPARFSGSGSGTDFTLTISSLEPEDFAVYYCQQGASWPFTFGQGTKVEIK , report its % SIRP alpha Inhibition.
99.6%
